Test system: Plasmodium berghei
procedure-summary: Luciferase/luciferin-expressing antifolate-resistant parasites were used to infect a culture of HepG2 cells that were pre-incubated with compounds. Infected hepatocytes emit light due to the luciferase reaction. Assay results are presented as the percent inhibition of light emission compared to control. […]
Assay type: functional
measurement-setup: sporozoite, HEPG2TOX_HILL_SLOPE 3.61, HEPG2TOX_R_SQUARED 0.979, PBLUC_HILL_SLOPE 3.48, PBLUC_R_SQUARED 0.782, read-out: LUCIFERASE INFECTION ASSAY - IC50
readout-label: pIC50
Recall that pIC50 is obtained by taking minus log10 of the concentration measured in molar.

Query block: What does the data say about its pIC50? Entry: O=C(c1cnc2ccc3ccccc3c2c1)c1cc(F)ccc1O
Result block: 5.27
